Values were extracted from patent US11873291B2.

# tested_target: recombinant human cGAS (aa147-522) (Homo sapiens)
# Construct: recombinant human cGAS (aa147-522); His6-SUMO (cleaved yes); made in house; host or cells: E. coli BL21/pLys
# Sequence (Q8N884 147-522): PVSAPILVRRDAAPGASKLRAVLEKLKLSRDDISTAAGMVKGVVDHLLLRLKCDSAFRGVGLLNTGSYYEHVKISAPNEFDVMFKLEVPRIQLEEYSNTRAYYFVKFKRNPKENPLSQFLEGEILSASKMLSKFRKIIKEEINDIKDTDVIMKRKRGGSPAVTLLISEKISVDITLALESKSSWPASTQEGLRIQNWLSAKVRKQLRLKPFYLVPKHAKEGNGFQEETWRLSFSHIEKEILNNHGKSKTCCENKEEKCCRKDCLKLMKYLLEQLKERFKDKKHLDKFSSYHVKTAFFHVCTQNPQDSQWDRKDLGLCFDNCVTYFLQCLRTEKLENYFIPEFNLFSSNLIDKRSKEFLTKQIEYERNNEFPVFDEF
# assay_overview: In vitro inhibition assay of cGAS activity (ATP consumption, KinaseGlo Max)
# Format: biochemical
# condition_summary: Table 2, read-out: cGAS Inhibition Results IC50
pIC50: −log10 of the molar value.
readout_kind: pIC50

query: Item NC1CCCN(c2cc(-n3ccnc3)c3ccc(Cl)cc3n2)C1 (stereo not shown) has what recorded pIC50?
result: < 4.52

---

A collection of compounds and their measured IC50
# tested_target: recombinant human cGAS (aa147-522) (Homo sapiens)
# Construct: recombinant human cGAS (aa147-522); His6-SUMO (cleaved yes); made in house; host or cells: E. coli BL21/pLys
# assay_overview: In vitro inhibition assay of cGAS activity (ATP consumption, KinaseGlo Max)
# Type: biochemical
# condition_summary: Table 3, read-out: cGAS Inhibition Results IC50

Some compounds with known IC50 results, for comparison:
• CC(C)[C@H](NC(=O)[C@@H]1CCCN1c1cc(-n2ccnc2)c2ccc(Cl)c(Cl)c2n1)C(=O)O = 2 to 30 µM
• O=C(O)CCOCC1CN(c2cc(-n3ccnc3)c3ccc(Cl)c(Cl)c3n2)C1 = < 2 µM
• O=C(COC[C@@H]1CCCN1c1cc(-n2ccnc2)c2ccc(Cl)c(Cl)c2n1)NO = < 2 µM
• O=C(O)COC[C@H]1CCCN(c2cc(-n3ccnc3)c3ccc(Cl)c(Cl)c3n2)C1 = < 2 µM

Next compound, please.
query: Item "COC(=O)[C@@H]1C[C@@H](C)CN1c1cc(-n2ccnc2)c2ccc(Cl)c(Cl)c2n1" has what recorded IC50?
result: 2 to 30 µM
